Exercise: for every item that follows, state its recorded Jurkat Cell Binding (FOI).
Biological target: T1, human CD3 expressed on cells (human, UniProt P07766 23-207; P04234 22-171; P09693 23-182)
T1 construct: whole, on cells; CD3 complex on Jurkat cells and on human primary T cells
T1 sequence (P07766 23-207, chain 1 of 3): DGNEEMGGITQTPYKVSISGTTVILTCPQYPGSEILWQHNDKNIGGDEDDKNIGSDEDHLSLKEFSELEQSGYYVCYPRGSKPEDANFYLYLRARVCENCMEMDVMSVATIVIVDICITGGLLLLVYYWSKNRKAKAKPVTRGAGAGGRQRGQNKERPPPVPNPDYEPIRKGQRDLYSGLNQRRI
T1 sequence (P04234 22-171, chain 2 of 3): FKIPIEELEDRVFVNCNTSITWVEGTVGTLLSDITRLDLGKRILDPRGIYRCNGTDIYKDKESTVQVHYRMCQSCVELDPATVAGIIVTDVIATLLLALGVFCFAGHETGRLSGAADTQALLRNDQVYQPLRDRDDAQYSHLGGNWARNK
T1 sequence (P09693 23-182, chain 3 of 3): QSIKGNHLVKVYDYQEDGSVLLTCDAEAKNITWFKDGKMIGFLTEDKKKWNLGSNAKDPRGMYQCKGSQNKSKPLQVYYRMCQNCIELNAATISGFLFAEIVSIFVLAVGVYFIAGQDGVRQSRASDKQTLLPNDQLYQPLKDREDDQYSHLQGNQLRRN
Experiment: flow cytometry, 25 nM
Description: Purified antibodies were confirmed to bind CD3 expressed on cells using the CytoFLEX S or LX flow cytometers (Beckman Coulter). Antibodies were diluted to 25 nM in FACS buffer (PBS+2% FBS) and were incubated with CD3-expressing cells for 30 minutes at 4° C. […] The median fluorescence intensity of the binding signal for each antibody was normalized to the isotype control to obtain a fold over isotype value. An antibody with a fold over isotype (FOI) of ≥10 was considered to be positive for binding.
Numbers only; they are read as FOI.

Per the record, mAb 77 (antibody, V domains shown) VH: EVQLVESGGGLVQPGGSLRLSCAASGFTFSNYWMSWVRQAPGKGLEWVANIKQDGSEKYYVDSVRGRFTISRDNAKKSLYLQMNSLRAEDTAVYYCARDNSNYAYWYFDIWGRGTLVTVSS VL: DIQMTQSPSTLSVSVGDRVTITCRASQSIRKWLAWYQQKPGKAPKLLIFKASSLESGVPSRFSGSGSGTEFTLTISSLQPDDFATYYCQQYDTYSRTFGQGTKVEIK has Jurkat Cell Binding (FOI) of 106

Per the record, mAb 101 (antibody, V domains shown) VH: QGQLVESGGGVVQPGRSLRLSCAASGFTFRGFGMHWVRQAPGKGLEWVAIIYYDGKNKYYADSVKGRFTISRDNSKNMLYLQMNSLRAEDTAVYYCAKGGGYNWFDPWGQGTLVTVSS VL: DIQMTQSPSSLSASVGDRVTITCRASQSISTYLNWYQQKPGKAPKLLIYSASSLQSGVPSRFSGSGSGTDFTLTISNLQPEDFAIYYCQRSYSPPFTFGPGTKLDIR has Jurkat Cell Binding (FOI) of 216
